assay: Caco-2 membrane permeability / bi-directional transport (Papp); format: in vitro ADME, human; conditions: human; Caco-2 cells; read-out: Ratio Papp BA/Papp AB
observable: efflux ratio at 60 min, 10 µM
Numbers only.

-- ask Find the measured efflux ratio at 60 min, 10 µM of COc1ccc2[nH]c([S+]([O-])Cc3ncc(C)c(OC)c3C)nc2c1 (stereo not shown) and report it.
-- reply 1.29

----------
Experiment: Caco-2 membrane permeability / bi-directional transport (Papp)
Format: in vitro ADME, human
Conditions: human; Caco-2 cells, A to B, 10 μM
Procedure: Determination of membrane permeability in all examples described herein was accomplished by the following procedure. […] Lucifer yellow (LY) was used as a paracellular permeability reference standard to determine integrity of cell layers used in the experiments. […] Fluorescence level in basolateral fluid sampled at 5, 20, and 60 min post dose was determined using Fluostar Galaxy (BMG Labtechnologies, Durham, N.C.) at excitation/emission wavelengths of 485/520 nm. […]
observable: Papp A→B at 60 min, 10 μM (×10⁻⁶ cm/s)
Give bare numbers, in ×10⁻⁶ cm/s.

-- ask Find the measured Papp A→B at 60 min, 10 μM of COc1ccc2[nH]c([S+]([O-])Cc3ncc(C)c(OC)c3C)nc2c1 (stereo not shown) and report it.
-- reply 12.6

----------
Please go through the items and note down their Dog T1/2 PPI.
experiment: Pharmacokinetics in dogs after oral or intravenous administration; type: in vivo, dogs (beagle); conditions: dog; oral; systemic half-life of the proton pump inhibitor; parenthesis = standard deviation

[[record]]
molecule = "Cc1c(OCC(F)(F)F)ccnc1C[S+]([O-])c1nc2ccccc2n1S(=O)(=O)c1cccc(C(=O)O)c1 (stereo not drawn)"
result = "53.6 min"

[[record]]
molecule = "COc1ccc(C(=O)O)cc1S(=O)(=O)n1c([S+]([O-])Cc2nccc(OCC(F)(F)F)c2C)nc2ccccc21 (stereo not drawn)"
result = "83.4 min"

[[record]]
molecule = "Cc1c(OCC(F)(F)F)ccnc1C[S+]([O-])c1nc2ccccc2n1S(=O)(=O)c1ccc(OCC(C)(C)C(=O)O)cc1 (stereo not drawn)"
result = "0.873 (0.288)"

[[record]]
molecule = "Cc1c(OCC(F)(F)F)ccnc1C[S+]([O-])c1nc2ccccc2n1S(=O)(=O)c1ccc(CC(=O)O)cc1 (stereo not drawn)"
result = "53.6 min"

[[record]]
molecule = "Cc1c(OCC(F)(F)F)ccnc1C[S+]([O-])c1nc2ccccc2n1S(=O)(=O)c1ccc(OCC(=O)O)cc1 (stereo not drawn)"
result = "0.989 (0.307)"

[[record]]
molecule = "Cc1c(OCC(F)(F)F)ccnc1C[S+]([O-])c1nc2ccccc2n1S(=O)(=O)c1ccc(CC(=O)O)cc1C(C)C (stereo not drawn)"
result = "55.4 min"

[[record]]
molecule = "Cc1ccc(C(=O)O)cc1S(=O)(=O)n1c([S+]([O-])Cc2nccc(OCC(F)(F)F)c2C)nc2ccccc21 (stereo not drawn)"
result = "106 min"

[[record]]
molecule = "Cc1c(OCC(F)(F)F)ccnc1C[S+]([O-])c1nc2ccccc2n1S(=O)(=O)c1ccc(CC(=O)O)c(CC(=O)O)c1 (stereo not drawn)"
result = "55.9 min"


We next turn to a different molecule, shown below.
-- ask Find the measured Dog T1/2 PPI of COc1ccc(S(=O)(=O)n2c([S+]([O-])Cc3nccc(OCC(F)(F)F)c3C)nc3ccccc32)cc1C(=O)O (stereo not drawn) and report it.
-- reply 64.8 min

----------
test system: MDR1; assay: MDR1-MDCK bi-directional transport (Papp); type: in vitro ADME; settings: dog; MDR1-MDCK cells, B to A, 10 μM
observable: Papp B→A at 60 min, 10 μM (nm/s)
Answers are plain numbers, in nm/s.

-- ask Find the measured Papp B→A at 60 min, 10 μM of COc1ccc2[nH]c([S+]([O-])Cc3ncc(C)c(OC)c3C)nc2c1 (stereo not shown) [Omeprazole] and report it.
-- reply 171

----------
test: Pharmacokinetics in dogs after oral or intravenous administration; assay type: in vivo, dogs (beagle); details: dog; oral; systemic half-life of intact prodrug; parenthesis = standard deviation
observable: Dog T1/2 Prodrug

[[record]]
compound = "COc1ccc(C(=O)O)cc1S(=O)(=O)n1c([S+]([O-])Cc2nccc(OCC(F)(F)F)c2C)nc2ccccc21 (stereo not drawn)"
observable = "Dog T1/2 Prodrug"
result = "7.08 min"

[[record]]
compound = "Cc1c(OCC(F)(F)F)ccnc1C[S+]([O-])c1nc2ccccc2n1S(=O)(=O)c1ccc(CC(=O)O)c(CC(=O)O)c1 (stereo not drawn)"
observable = "Dog T1/2 Prodrug"
result = "NC"

[[record]]
compound = "Cc1c(OCC(F)(F)F)ccnc1C[S+]([O-])c1nc2ccccc2n1S(=O)(=O)c1ccc(CC(=O)O)cc1C(C)C (stereo not drawn)"
observable = "Dog T1/2 Prodrug"
result = "NC"

[[record]]
compound = "COc1ccc(S(=O)(=O)n2c([S+]([O-])Cc3nccc(OCC(F)(F)F)c3C)nc3ccccc32)cc1C(=O)O (stereo not drawn)"
observable = "Dog T1/2 Prodrug"
result = "NC"


Required: Dog T1/2 Prodrug, one value per compound below.
1. Cc1c(OCC(F)(F)F)ccnc1C[S+]([O-])c1nc2ccccc2n1S(=O)(=O)c1ccc(OCC(=O)O)cc1 (stereo not drawn)
2. Cc1c(OCC(F)(F)F)ccnc1C[S+]([O-])c1nc2ccccc2n1S(=O)(=O)c1cccc(C(=O)O)c1 (stereo not drawn)
3. Cc1c(OCC(F)(F)F)ccnc1C[S+]([O-])c1nc2ccccc2n1S(=O)(=O)c1ccc(CC(=O)O)cc1 (stereo not drawn)
4. Cc1c(OCC(F)(F)F)ccnc1C[S+]([O-])c1nc2ccccc2n1S(=O)(=O)c1ccc(OCC(C)(C)C(=O)O)cc1 (stereo not drawn)

-- reply
["NC", "12.4 min", "NC", "NC"]

-- ask Find the measured Dog T1/2 Prodrug of Cc1ccc(C(=O)O)cc1S(=O)(=O)n1c([S+]([O-])Cc2nccc(OCC(F)(F)F)c2C)nc2ccccc21 (stereo not drawn) and report it.
-- reply 7.32 min
